assayed.system: CYP1A2 (Homo sapiens)
procedure.details: EROD assay, recombinant human CYP1A2 inhibition
Assay type: biochemical
condition.details: human, recombinant human CYP1A2 with P450 reductase (Supersomes), pH 7.4, probe 7-ethoxyresorufin (7-ER), 150 nM
property.measured: IC50 at 50 min

# input compound: COc1cc(-c2ccccc2)nc2c1ccc1ccccc12 [Compound 4b, 4-Methoxy-2-phenylbenzo[h]quinoline] ; wanted: its IC50 at 50 min > 5 µM

* * *

assayed.system: CYP1A1 (Homo sapiens, UniProt P04798)
Sequence (P04798 whole entry): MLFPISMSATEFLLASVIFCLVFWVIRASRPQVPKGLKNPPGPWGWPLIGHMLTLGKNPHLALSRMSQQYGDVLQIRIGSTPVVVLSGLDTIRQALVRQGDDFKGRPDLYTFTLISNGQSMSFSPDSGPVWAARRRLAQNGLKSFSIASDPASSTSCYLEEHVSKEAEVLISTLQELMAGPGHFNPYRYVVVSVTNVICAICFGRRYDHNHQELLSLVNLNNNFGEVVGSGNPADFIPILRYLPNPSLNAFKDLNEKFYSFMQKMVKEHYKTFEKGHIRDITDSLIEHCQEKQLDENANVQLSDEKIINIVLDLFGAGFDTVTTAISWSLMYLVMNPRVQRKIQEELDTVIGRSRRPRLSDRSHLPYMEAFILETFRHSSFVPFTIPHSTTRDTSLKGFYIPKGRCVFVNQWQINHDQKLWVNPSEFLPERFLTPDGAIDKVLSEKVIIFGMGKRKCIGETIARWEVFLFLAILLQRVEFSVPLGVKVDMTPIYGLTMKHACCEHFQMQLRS
procedure.details: EROD assay, recombinant human CYP1A1 inhibition
Assay type: biochemical
condition.details: human, recombinant human CYP1A1 with P450 reductase (Supersomes), pH 7.4, probe 7-ethoxyresorufin (7-ER), 150 nM
property.measured: IC50 at 15 min

Lab note: need IC50 at 15 min with CYP1A1 (Homo sapiens, UniProt P04798) for entry COc1cc(-c2ccccc2)nc2c1ccc1ccccc12 [Compound 4b, 4-Methoxy-2-phenylbenzo[h]quinoline] , please look it up. > 5 µM

* * *

Record form. Attribute: IC50. Fill in for each entry.
assayed.system: CYP1A2 (Homo sapiens, UniProt P05177)
Sequence (P05177 2-516 limits assumed): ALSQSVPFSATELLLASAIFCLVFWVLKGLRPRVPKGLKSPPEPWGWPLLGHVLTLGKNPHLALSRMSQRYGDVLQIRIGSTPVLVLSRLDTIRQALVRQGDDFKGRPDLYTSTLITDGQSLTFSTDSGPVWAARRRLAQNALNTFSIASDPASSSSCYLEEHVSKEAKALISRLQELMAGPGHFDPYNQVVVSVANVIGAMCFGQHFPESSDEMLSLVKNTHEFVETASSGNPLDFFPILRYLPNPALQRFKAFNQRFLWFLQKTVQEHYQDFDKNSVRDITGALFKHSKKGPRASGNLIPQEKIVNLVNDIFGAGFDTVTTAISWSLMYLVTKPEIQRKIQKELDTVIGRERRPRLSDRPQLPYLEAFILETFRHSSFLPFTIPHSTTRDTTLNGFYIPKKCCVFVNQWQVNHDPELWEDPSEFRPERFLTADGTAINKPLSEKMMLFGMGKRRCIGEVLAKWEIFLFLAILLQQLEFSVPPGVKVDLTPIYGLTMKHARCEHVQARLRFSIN
procedure.details: EROD assay, recombinant human CYP1A2 inhibition
Type: biochemical
Use nM as the unit, but write only the number.

# input compound: COc1cc2c(=O)cc(-c3cccc(Cl)c3)[nH]c2c2c(OC)cccc12 ; wanted: its IC50 84.5

# input compound: COc1cc2c(=O)cc(-c3cccc(F)c3)[nH]c2c2c(OC)cccc12 ; wanted: its IC50 331

# input compound: COc1cc2c(=O)cc(-c3ccc(F)cc3)[nH]c2c2c(OC)cccc12 ; wanted: its IC50 2110

# input compound: COc1cc2c(=O)cc(-c3ccccc3F)[nH]c2c2c(OC)cccc12 ; wanted: its IC50 174

# input compound: O=C1c2ccc3ccccc3c2N[C@@H](c2ccccc2)[C@H]1O ; wanted: its IC50 1410

# input compound: O=C1CC(c2ccccc2)Nc2c1ccc1ccccc21 (stereo not drawn) ; wanted: its IC50 953

* * *

assayed.system: recombinant human CYP1B1 (Homo sapiens, UniProt Q16678)
Sequence (Q16678 whole entry): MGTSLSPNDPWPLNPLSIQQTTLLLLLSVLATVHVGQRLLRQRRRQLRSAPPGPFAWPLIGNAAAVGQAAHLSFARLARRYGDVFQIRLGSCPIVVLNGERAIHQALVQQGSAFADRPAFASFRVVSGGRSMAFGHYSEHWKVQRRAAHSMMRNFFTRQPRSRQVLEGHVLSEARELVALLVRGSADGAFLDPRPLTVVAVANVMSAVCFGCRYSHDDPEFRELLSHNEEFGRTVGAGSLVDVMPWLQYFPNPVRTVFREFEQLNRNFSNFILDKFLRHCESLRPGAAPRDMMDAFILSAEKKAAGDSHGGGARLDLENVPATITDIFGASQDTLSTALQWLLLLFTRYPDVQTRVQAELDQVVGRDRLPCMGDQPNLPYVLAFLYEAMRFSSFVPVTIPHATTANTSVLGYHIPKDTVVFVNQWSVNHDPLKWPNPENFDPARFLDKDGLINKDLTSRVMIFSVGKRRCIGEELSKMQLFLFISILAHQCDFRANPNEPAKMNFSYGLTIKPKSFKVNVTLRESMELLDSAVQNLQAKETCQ
procedure.details: EROD assay, recombinant human CYP1B1 inhibition
Assay type: biochemical
condition.details: selectivity for CYP1B1 over CYP1A2
Label key: criterion met means IC50 ratio 1A2/1B1 under 9; criterion not met means IC50 ratio 1A2/1B1 of 9 or more.

For this molecule, is IC50 ratio 1A2/1B1 lower than 9? COc1cc2c(=O)cc(-c3cccc(Cl)c3)[nH]c2c2c(OC)cccc12 criterion met

For this molecule, is IC50 ratio 1A2/1B1 lower than 9? O=c1c(O)c(-c2ccccc2)[nH]c2c1ccc1ccccc12 criterion not met

For this molecule, is IC50 ratio 1A2/1B1 lower than 9? O=c1c(O)c(-c2ccc(O)cc2)[nH]c2c1ccc1ccccc12 criterion not met

For this molecule, is IC50 ratio 1A2/1B1 lower than 9? O=C1c2ccc3ccccc3c2N[C@@H](c2ccccc2)[C@H]1O criterion met

For this molecule, is IC50 ratio 1A2/1B1 lower than 9? COc1cc2c(=O)cc(-c3ccccc3F)[nH]c2c2c(OC)cccc12 criterion met

For this molecule, is IC50 ratio 1A2/1B1 lower than 9? COc1cc2c(=O)cc(-c3ccc(F)cc3)[nH]c2c2c(OC)cccc12 criterion not met

For this molecule, is IC50 ratio 1A2/1B1 lower than 9? COc1cc([C@@H]2Nc3c(ccc4ccccc34)C(=O)[C@@H]2O)cc(OC)c1OC criterion not met

For this molecule, is IC50 ratio 1A2/1B1 lower than 9? O=C1CC(c2ccccc2F)Nc2c1ccc1ccccc21 (centres unmarked) criterion met

For this molecule, is IC50 ratio 1A2/1B1 lower than 9? COc1cc(C2CC(=O)c3ccc4ccccc4c3N2)cc(OC)c1OC (centres unmarked) criterion not met

For this molecule, is IC50 ratio 1A2/1B1 lower than 9? COc1cc(-c2cc(=O)c3cc(OC)c4cccc(OC)c4c3[nH]2)cc(OC)c1OC criterion not met

For this molecule, is IC50 ratio 1A2/1B1 lower than 9? COc1ccc(-c2cc(=O)c3cc(OC)c4cccc(OC)c4c3[nH]2)cc1 criterion not met

For this molecule, is IC50 ratio 1A2/1B1 lower than 9? COc1cc2c(=O)cc(-c3cccc(F)c3)[nH]c2c2c(OC)cccc12 criterion not met

For this molecule, is IC50 ratio 1A2/1B1 lower than 9? O=C1CC(c2ccccc2)Nc2c1ccc1ccccc21 (centres unmarked) criterion met

For this molecule, is IC50 ratio 1A2/1B1 lower than 9? O=c1c(O)c(-c2ccc(F)cc2)[nH]c2c1ccc1ccccc12 criterion not met

For this molecule, is IC50 ratio 1A2/1B1 lower than 9? COc1cccc(-c2cc(=O)c3cc(OC)c4cccc(OC)c4c3[nH]2)c1 criterion not met

For this molecule, is IC50 ratio 1A2/1B1 lower than 9? COc1cc2c(=O)cc(-c3ccc(C(F)(F)F)cc3)[nH]c2c2c(OC)cccc12 criterion not met

For this molecule, is IC50 ratio 1A2/1B1 lower than 9? O=c1cc(-c2ccccc2)[nH]c2c1ccc1ccccc12 [Compound 3e, 2-Phenylbenzo[h]quinolin-4(1H)-one] criterion not met

For this molecule, is IC50 ratio 1A2/1B1 lower than 9? O=C1CC(c2cccc(F)c2)Nc2c1ccc1ccccc21 (centres unmarked) criterion not met

For this molecule, is IC50 ratio 1A2/1B1 lower than 9? O=c1c(O)c(-c2ccccc2F)[nH]c2c1ccc1ccccc12 criterion not met
